Target: Prostaglandin G/H synthase 1 (Ovis aries)
Sequence (P05979 whole entry): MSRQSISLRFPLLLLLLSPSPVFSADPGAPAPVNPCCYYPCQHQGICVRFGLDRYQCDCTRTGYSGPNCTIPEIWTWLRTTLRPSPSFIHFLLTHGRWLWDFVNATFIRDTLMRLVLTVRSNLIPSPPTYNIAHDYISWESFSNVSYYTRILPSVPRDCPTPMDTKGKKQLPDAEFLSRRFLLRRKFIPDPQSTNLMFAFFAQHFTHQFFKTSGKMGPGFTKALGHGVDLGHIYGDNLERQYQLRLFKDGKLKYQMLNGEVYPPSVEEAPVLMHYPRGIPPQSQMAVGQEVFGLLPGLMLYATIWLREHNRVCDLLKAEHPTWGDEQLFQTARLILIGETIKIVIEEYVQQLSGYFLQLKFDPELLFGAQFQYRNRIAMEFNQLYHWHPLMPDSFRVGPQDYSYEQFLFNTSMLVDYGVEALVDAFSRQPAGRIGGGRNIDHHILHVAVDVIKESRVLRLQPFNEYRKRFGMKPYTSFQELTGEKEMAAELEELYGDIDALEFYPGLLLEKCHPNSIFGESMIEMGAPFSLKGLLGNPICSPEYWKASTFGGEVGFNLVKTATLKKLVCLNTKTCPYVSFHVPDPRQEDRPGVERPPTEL
pIC50: −log10 of the molar value.
test.readout: pIC50

[
  {
    "sample.smiles": "CCOc1ccc(-c2cc(-c3ccccc3)c(-c3ccc(N=[N+]=[N-])cc3)c(=O)o2)cc1",
    "pIC50": "< 4.00"
  },
  {
    "sample.smiles": "CCc1ccc(-c2cc(-c3ccccc3)c(-c3ccc(S(C)(=O)=O)cc3)c(=O)o2)cc1",
    "pIC50": "< 4.00"
  }
]

Now for the compound whose pIC50 we want.
The compound identified as `CS(=O)(=O)c1ccc(-c2cc(-c3ccccc3)oc(=O)c2-c2ccccc2)cc1` registered its pIC50 at < 4.00
